- Protocol: stimulators of insulin release from INS-1E, primary screen, cell-based, 5 mM glucose, NPC library (AID 1117329)
- Stated conditions: rat INS-1E insulin secretion, at 10 µM, hits give high values
Experimental endpoint: insulin secretion stimulation (%)
One number for each entry, in %.

CNC1(C)C2CCC(C2)C1(C)C (stereo unspecified) : 3.5
NC(N)=NS(=O)(=O)c1ccc(N)cc1 : -1.4
CCCN[C@H]1CCc2nc(N)sc2C1 : -3.1

Batch request: insulin secretion stimulation per item, same order as input.
1. Cc1ccc(C(=O)Nc2ccc(S(=O)(=O)O)c3cc(S(=O)(=O)O)cc(S(=O)(=O)O)c23)cc1NC(=O)c1cccc(NC(=O)Nc2cccc(C(=O)Nc3cc(C(=O)Nc4ccc(S(=O)(=O)O)c5cc(S(=O)(=O)O)cc(S(=O)(=O)O)c45)ccc3C)c2)c1
2. O=C(Nc1cccc(C2=NCCN2)c1)Nc1cccc(C2=NCCN2)c1
3. COc1cc(C)nc(-n2nc(C)cc2OC)n1
4. CCN(CC)CCOC(=O)C(Cc1cccc2ccccc12)CC1CCCO1 (stereo unspecified)
5. Nc1ccc(N=Nc2ccccc2)c(N)n1
6. CCN(CCCCOC(=O)c1ccc(OC)c(OC)c1)C(C)Cc1ccc(OC)cc1 (stereo unspecified)
7. C[n+]1cc2c3c(ccc2c2ccc4cc5c(cc4c21)OCO5)OCO3

A.
1.6
0.05
2.5
7.9
0.5
49.6
-3.7

Batch request: insulin secretion stimulation per item, same order as input.
1. C[C@H](N)[C@H](O)c1cccc(O)c1
2. NC(=O)NC1NC(=O)NC1=O (stereo unspecified)
3. O=C(NCCN1CCOCC1)c1ccc(Cl)cc1
4. COc1ccc(CN2CCN(C(c3ccc(F)cc3)c3ccc(F)cc3)CC2)c(OC)c1OC
5. CCN1CCN(C(=O)N[C@@H](C(=O)N[C@@H]2C(=O)N3C(C(=O)O)=C(CSc4nnnn4C)CS[C@H]23)c2ccc(O)cc2)C(=O)C1=O
6. CC1=C(C(=O)O)N2C(=O)[C@@H](NC(=O)[C@H](N)c3ccc(O)cc3)[C@H]2SC1
7. CNC[C@H](O)[C@@H](O)[C@H](O)[C@H](O)CO
8. CCC[C@H](N[C@@H](C)C(=O)N1[C@H](C(=O)O)C[C@@H]2CCCC[C@@H]21)C(=O)OCC

A.
1. -3.4
2. -2.3
3. -2.6
4. 1.6
5. 1.3
6. -0.5
7. 0.7
8. 2.3

Batch request: insulin secretion stimulation per item, same order as input.
1. CNNCc1ccc(C(=O)NC(C)C)cc1
2. OCCOCCN1CCN(C2=Nc3ccccc3Sc3ccccc32)CC1
3. C[C@]12CCC(=O)C=C1C=C[C@@H]1[C@@H]2CC[C@@]2(C)[C@H]1CC[C@@]21CCC(=O)O1

A.
1. 0.5
2. 2.8
3. -2.6

---

- System: Mitogen-activated protein kinase 7 (Homo sapiens) (UniProt Q13164)
- Sequence (Q13164 whole entry, looked up, the tested form may be a part): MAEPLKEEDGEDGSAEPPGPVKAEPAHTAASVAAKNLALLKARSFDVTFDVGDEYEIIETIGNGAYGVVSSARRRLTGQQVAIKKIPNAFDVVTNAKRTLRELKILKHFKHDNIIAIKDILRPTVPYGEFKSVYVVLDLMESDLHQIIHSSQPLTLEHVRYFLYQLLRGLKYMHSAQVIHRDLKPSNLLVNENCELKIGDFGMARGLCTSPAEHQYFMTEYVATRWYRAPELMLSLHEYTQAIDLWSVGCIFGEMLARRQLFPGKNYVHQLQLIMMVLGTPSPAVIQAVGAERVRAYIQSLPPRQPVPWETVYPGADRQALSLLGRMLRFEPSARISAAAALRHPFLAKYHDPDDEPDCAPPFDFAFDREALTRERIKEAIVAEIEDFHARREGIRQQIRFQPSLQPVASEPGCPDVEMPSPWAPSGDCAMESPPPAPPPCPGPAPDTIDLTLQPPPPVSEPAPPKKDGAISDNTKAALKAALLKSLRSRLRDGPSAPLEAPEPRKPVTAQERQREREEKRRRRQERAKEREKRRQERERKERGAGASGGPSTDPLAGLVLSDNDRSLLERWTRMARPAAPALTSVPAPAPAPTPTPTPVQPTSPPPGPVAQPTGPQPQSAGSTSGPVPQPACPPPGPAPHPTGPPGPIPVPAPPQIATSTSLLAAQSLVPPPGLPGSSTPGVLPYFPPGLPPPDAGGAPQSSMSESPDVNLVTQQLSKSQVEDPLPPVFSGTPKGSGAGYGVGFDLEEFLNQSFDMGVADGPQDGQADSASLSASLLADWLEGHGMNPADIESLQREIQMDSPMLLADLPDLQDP
- Protocol: Gal4-ERK5 driven luciferase induction – cell-based, HTS, primary screen (AID 1508626);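 further: luciferase driven by Gal4-ERK5 fusion binding five Gal4 sites before minimal TATA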
- Stated conditions: HeLa Gal4-ERK5 transactivation, 18 h, at 5 µM, hits give high values
Active and inactive are the calls of the source.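 How the source made its calls: active means luciferase signal above three times the same-plate solvent-only control wells; inactive means the rest.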
Experimental endpoint: luciferase signal

Batch request: luciferase signal per item, same order as input.
1. CC(N)C12CC3CC(CC(C3)C1)C2 (centres undefined)
2. O=C(NC(Cc1cc(=O)[nH]c2ccccc12)C(=O)O)c1ccc(Cl)cc1 (centres undefined)
3. Cc1c(Cl)cccc1Nc1ccccc1C(=O)O
4. CC(C)(Oc1ccc(Cl)cc1)C(=O)O
5. CN1C(C)(C)CCCC1(C)C
6. Nc1c(Br)cc(Br)cc1CNC1CCC(O)CC1 (centres undefined)

A.
["48 AU (inactive)", "40 AU (inactive)", "52 AU (inactive)", "72 AU (inactive)", "68 AU (inactive)", "84 AU (inactive)"]
